Kd: recorded values
- TARGET ENTITY: UniProtKB Q9Y5N5
- TEST NAME: Microscale thermophoresis (MST) KMT9 binding
- CONDITION DESCRIPTION: microscale thermophoresis, His-tag labelled KMT9 (20 nM); read-out: MST

// solved cases for Kd follow
CNc1ncnc2c1ccn2[C@@H]1C[C@H](CN2CCCC23CCNCC3)[C@@H](O)[C@H]1O
> 1 µM
CNc1ncnc2c1ccn2[C@@H]1C[C@H](/C=C/CCNCCc2ccccc2)[C@@H](O)[C@H]1O
> 1 µM
CCC(=O)NCCCNC(=O)[C@H]1O[C@@H](n2cnc3c(N)ncnc32)[C@H](O)[C@@H]1O
> 1 µM
CNc1ncnc2c1ccn2[C@@H]1C[C@H](C(=O)NCCCNCc2ccc(Oc3ccc(Cl)cc3)c(F)c2)[C@@H](O)[C@H]1O
0.1 to 1 µM
CCc1cn([C@@H]2C[C@H](CNCCCNCCc3cccc(Oc4ccccc4)c3)[C@@H](O)[C@H]2O)c2ncnc(N)c12
0.01 to 0.1 µM
Nc1nc(Cl)nc2c1c(-c1nc(Cc3ccccc3)cs1)cn2[C@@H]1C[C@H](CNCCCNCCc2ccccc2)[C@@H](O)[C@H]1O
0.1 to 1 µM

Nc1ncnc2c1c(-c1nc(Cc3ccccc3)cs1)cn2[C@@H]1C[C@H](CNCCCNCCc2ccccc2)[C@@H](O)[C@H]1O has a reported Kd of 0.01 to 0.1 µM

====

Kd: recorded values
- TARGET ENTITY: KMT9 (Homo sapiens, UniProt Q9Y5N5)
- Sequence (Q9Y5N5 whole entry): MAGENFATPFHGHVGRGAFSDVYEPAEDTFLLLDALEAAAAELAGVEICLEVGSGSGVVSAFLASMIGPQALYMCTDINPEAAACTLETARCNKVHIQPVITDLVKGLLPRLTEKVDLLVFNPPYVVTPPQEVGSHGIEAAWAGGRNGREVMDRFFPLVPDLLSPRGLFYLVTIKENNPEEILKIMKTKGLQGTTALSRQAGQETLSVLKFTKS
- Sequence (Q9UI30 1-120 isoform Q9UI30-2 partner): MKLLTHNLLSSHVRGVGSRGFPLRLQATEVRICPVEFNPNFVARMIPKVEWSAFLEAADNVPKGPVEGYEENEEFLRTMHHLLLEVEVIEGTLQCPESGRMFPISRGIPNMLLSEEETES
- TEST NAME: Microscale thermophoresis (MST) KMT9 binding
- CONDITION DESCRIPTION: microscale thermophoresis, His-tag labelled KMT9 (20 nM); read-out: MST
- Description: To determine the binding affinity of the compounds according to the present invention and KMT9, microscale thermophoresis (MST) analysis was performed with a NanoTemper Monolith NT.115 instrument (NanoTemper Technologies GmbH). KMT9 was labelled with a RED-Tris-NTA labelling kit (NanoTemper Technologies GmbH) based on the manufacturer's instructions. Buffer including 25 mM HEPES (pH 7.5), 100 mM NaCl, 1 mM DTT and 0.05% Tween was used for the reaction buffer. […]

// solved cases for Kd follow
N#Cc1cn([C@@H]2C[C@H](CNCCCNCCc3ccccc3)[C@@H](O)[C@H]2O)c2ncnc(N)c12
100 to 1000 nM
CNc1ncnc2c1ccn2[C@@H]1C[C@H](COCC(=O)NCCc2ccccc2)[C@@H](O)[C@H]1O
> 1000 nM
COCCn1cc(COc2ccc(CNCCCNC[C@H]3O[C@@H](n4cnc5c(N)ncnc54)[C@H](O)[C@@H]3O)cc2)nn1
> 1000 nM
CN1CCC([C@H]2C[C@@H](n3cc(-c4ccn(Cc5ccccc5)n4)c4c(N)nc(Cl)nc43)[C@H](O)[C@@H]2O)CC1
≤ 10 nM
Nc1ncnc2c1c(-c1ccn(Cc3ccccc3)n1)cn2[C@@H]1C[C@H](CNCCCNCCc2ccccc2)[C@@H](O)[C@H]1O
10 to 100 nM
CCC(C)c1cn([C@@H]2C[C@H](CNCCCNCCc3ccccc3)[C@@H](O)[C@H]2O)c2ncnc(N)c12 (some centres unmarked)
100 to 1000 nM

Nc1ncnc2c1c(-c1ccccc1)cn2[C@@H]1C[C@H](CNCCCNCCc2ccccc2)[C@@H](O)[C@H]1O has a reported Kd of 100 to 1000 nM

CNc1ncnc2c1ccn2[C@@H]1C[C@H](CNCCCNCCc2cccc(Sc3ccccc3)c2)[C@@H](O)[C@H]1O has a reported Kd of 100 to 1000 nM

CNc1ncnc2c1ccn2[C@@H]1C[C@H](CNCC(F)(F)CNCCc2ccc3ccccc3c2)[C@@H](O)[C@H]1O has a reported Kd of > 1000 nM

Nc1ncnc2c1c(-c1nccs1)cn2[C@@H]1C[C@H](C2CCNCC2)[C@@H](O)[C@H]1O has a reported Kd of 10 to 100 nM

Nc1ncnc2c1c(-c1nccs1)cn2[C@@H]1C[C@H](c2ccccc2)[C@@H](O)[C@H]1O has a reported Kd of > 1000 nM

Nc1ncnc2c1c(-c1nccs1)cn2[C@@H]1C[C@H](c2cc(Cl)cc(Cl)c2)[C@@H](O)[C@H]1O has a reported Kd of > 1000 nM

Nc1nc(Cl)nc2c1c(-c1ccn(Cc3ccccc3)n1)cn2[C@@H]1C[C@H](CNCCCNCCc2ccccc2)[C@@H](O)[C@H]1O has a reported Kd of ≤ 10 nM

Cn1ccc(-c2cn([C@@H]3C[C@H](CNCCCNCCc4ccccc4)[C@@H](O)[C@H]3O)c3ncnc(N)c23)n1 has a reported Kd of 100 to 1000 nM

====

IC50: recorded values
- TARGET ENTITY: UniProt:Q9Y5N5
- TEST NAME: KMT9 methyltransferase inhibition assay, MTaseGlo luminescence (from entry 155)
- Format: biochemical
- CONDITION DESCRIPTION: MTaseGlo procedure (entries from 155); 100 nM KMT9, 5 μM ETF1, 1 μM SAM; read-out: Inhibition (IC50)

// solved cases for IC50 follow
COc1cc([C@H]2C[C@@H](n3cc(Br)c4c(N)nc(Cl)nc43)[C@H](O)[C@@H]2O)ccn1 [Compound 680]
100 to 1000 nM
CN(CCCNCCc1ccc(F)cc1)C[C@H]1C[C@@H](n2cc(-c3ccccc3)c3c(N)nc(Cl)nc32)[C@H](O)[C@@H]1O [Compound 575]
100 to 1000 nM
Nc1ncnc2c1ccn2[C@@H]1C[C@H](c2cccc(Cl)c2)[C@@H](O)[C@H]1O [Compound 407]
> 10000 nM

CNc1nc(Cl)nc2c1ccn2[C@@H]1C[C@H](CNCCCNCCc2cccc(Oc3ccccc3)c2)[C@@H](O)[C@H]1O [Compound 555] has a reported IC50 of 100 to 1000 nM

Nc1nc(Cl)nc2c1c(Br)cn2[C@@H]1C[C@H](CN(CCCNCCc2ccc(F)cc2)c2cn[nH]c2)[C@@H](O)[C@H]1O [Compound 538] has a reported IC50 of 100 to 1000 nM

====

- TARGET ENTITY: KMT9 (Homo sapiens, UniProt Q9Y5N5)
- TEST NAME: KMT9 methyltransferase inhibition assay, 3H-SAM scintillation (entries 1-154)
- Assay type: biochemical
- CONDITION DESCRIPTION: entries 1-154: 3H-SAM assay, 25 nM KMT9, 5 μM ETF1
pIC50: −log10 of the molar value.
pIC50: recorded values

// solved cases for pIC50 follow
CNc1ncnc2c1ccn2[C@@H]1C[C@H](CNCCC(=O)NCCc2ccccc2)[C@@H](O)[C@H]1O (racemic)
< 5.00
CNC(=O)[C@H]1C[C@@H](n2cc3c4c(ncnc42)NCCC3)[C@H](O)[C@@H]1O
< 5.00
CNc1ncnc2c1ccn2[C@@H]1C[C@H](CN(CCCNCCc2ccccc2)c2cc[nH]n2)[C@@H](O)[C@H]1O
5.00 to 6.00

Let me check: CNCCC(=O)N(C)C[C@H]1C[C@@H](n2ccc3c(NC)ncnc32)[C@H](O)[C@@H]1O , system KMT9 (Homo sapiens, UniProt Q9Y5N5), measured pIC50 is < 5.00

Let me check: Nc1ncnc2c1ncn2[C@@H]1O[C@H](CNCCCNCc2ccc3ccccc3c2)[C@@H](O)[C@H]1O , system KMT9 (Homo sapiens, UniProt Q9Y5N5), measured pIC50 is < 5.00

Let me check: O=C1CCc2cn([C@@H]3C[C@H](CNCCCNCCc4ccccc4)[C@@H](O)[C@H]3O)c3ncnc(c23)N1 , system KMT9 (Homo sapiens, UniProt Q9Y5N5), measured pIC50 is < 5.00

Let me check: CNc1ncnc2c1ccn2[C@@H]1C[C@H](CNCCCNCc2ccc(OCc3ccccc3)cc2)[C@@H](O)[C@H]1O , system KMT9 (Homo sapiens, UniProt Q9Y5N5), measured pIC50 is < 5.00

====

- TARGET ENTITY: UniProtKB Q9Y5N5
- TEST NAME: KMT9 methyltransferase inhibition assay, 3H-SAM scintillation (entries 1-154)
- Type: biochemical
- CONDITION DESCRIPTION: entries 1-154: 3H-SAM assay, 25 nM KMT9, 5 μM ETF1
pIC50: −log10 of the molar value.
pIC50: recorded values

// solved cases for pIC50 follow
CNc1ncnc2c1ccn2[C@@H]1C[C@H](C[S+]([O-])CCNCCc2ccccc2)[C@@H](O)[C@H]1O (stereo partly shown) [432 (304)]
< 5.00
CNc1ncnc2c1ccn2[C@@H]1C[C@H](CNCCCNCCc2ccc(Oc3ccc(Cl)cc3)c(F)c2)[C@@H](O)[C@H]1O [370 (274)]
5.00 to 6.00
CNc1ncnc2c1ccn2[C@@H]1C[C@H](C(=O)NCCCNCCc2ccc(Oc3ccc(Cl)cc3)c(F)c2)[C@@H](O)[C@H]1O [355 (259)]
6.00 to 7.00
CNc1ncnc2c1ccn2[C@@H]1O[C@H](CNCCCNCCc2ccccc2)[C@@H](O)[C@H]1O [309 (208)]
< 5.00

CNc1ncnc2c1ccn2[C@@H]1C[C@H](CN(CCCNCCc2ccccc2)c2cn[nH]c2)[C@@H](O)[C@H]1O [442 (314)] has a reported pIC50 of 5.00 to 6.00

C=Cc1cn([C@@H]2C[C@H](CNCCCNCCc3ccccc3)[C@@H](O)[C@H]2O)c2ncnc(C)c12 [Compound 610] has a reported pIC50 of < 5.00

CNc1ncnc2c1c(C)cn2[C@@H]1O[C@H](CNCCCNCCc2ccccc2)[C@@H](O)[C@H]1O [311 (210)] has a reported pIC50 of < 5.00

CCc1cn([C@@H]2C[C@H](CNCCCNCCc3ccccc3)[C@@H](O)[C@H]2O)c2ncncc12 [Compound 609] has a reported pIC50 of < 5.00

Nc1ncnc2c1ncn2[C@@H]1O[C@H](C(=O)NCCCNCCc2ccc(Oc3ccccc3)cc2)[C@@H](O)[C@H]1O [297 (194)] has a reported pIC50 of 5.00 to 6.00

Nc1ncnc2c1c(-c1ccn(S(=O)(=O)c3ccccc3)n1)cn2[C@@H]1C[C@H](CNCCCNCCc2ccccc2)[C@@H](O)[C@H]1O [Compound 604] has a reported pIC50 of > 7.00

CNc1ncnc2c1ccn2[C@@H]1C[C@H](CNCCCNCCc2cccc(Sc3ccccc3)c2)[C@@H](O)[C@H]1O [372 (276)] has a reported pIC50 of 5.00 to 6.00

CNc1ncnc2c1ccn2[C@@H]1C[C@H](COCCCNCCc2ccccc2)[C@@H](O)[C@H]1O [420 (291)] has a reported pIC50 of < 5.00

CNc1ncnc2c1ccn2[C@@H]1C[C@H](C(=O)NCCCNCc2ccc(Oc3ccc(Cl)cc3)c(F)c2)[C@@H](O)[C@H]1O [352 (256)] has a reported pIC50 of < 5.00

Nc1ncnc2c1c(-c1nccs1)cn2[C@@H]1C[C@H](CC2CNC2)[C@@H](O)[C@H]1O [Compound 486] has a reported pIC50 of < 5.00

CNc1ncnc2c1ccn2[C@@H]1C[C@H](CN(CCCNCCc2ccccc2)CC(F)(F)F)[C@@H](O)[C@H]1O [330 (234)] has a reported pIC50 of < 5.00
